measurement.target: ORAI 1/2/3 (Homo sapiens, UniProt Q96D31+Q96SN7+Q9BRQ5)
assay.text: Inhibition of ORAl1/2/3 in HEK293 cells assessed as inhibition of Cd2+ influx after 10 mins by FLIPR assay in presence of thapsigargin
Assay type: cell-based
Could you please mark Yes for values of IC50 below 30 µM and No for values at or above it?

Hello, I'm reviewing records and need to know if IC50 of CB(O)O [METHANE BORONIC ACID] is below 30 µM. Could you check?
No

Hello, I'm reviewing records and need to know if IC50 of OB(c1ccc(F)cc1)c1ccc(F)cc1 is below 30 µM. Could you check?
Yes

Hello, I'm reviewing records and need to know if IC50 of OB1c2ccccc2CCc2ccccc21 is below 30 µM. Could you check?
No

Hello, I'm reviewing records and need to know if IC50 of OB(c1ccccc1)c1ccccc1 [DIPHENYL BORINIC ACID] is below 30 µM. Could you check?
Yes

Hello, I'm reviewing records and need to know if IC50 of COc1ccc([B-]2(c3ccc(OC)cc3)[NH2+]CCO2)cc1 is below 30 µM. Could you check?
Yes

Hello, I'm reviewing records and need to know if IC50 of Cc1ccc([B-]2(c3ccc(C)cc3)[NH2+]CCO2)cc1 is below 30 µM. Could you check?
Yes

---

measurement.target: Transient receptor potential cation channel subfamily V member 6 (Homo sapiens)
assay.text: Inhibition of human TRPV6 transfected in HEK293 cells
Format: cell-based
quantity.name: IC50 (µM)
Provide only the numeric value, understood in µM.

Which measured IC50 value corresponds to c1ccc([B-]2(c3ccccc3)[NH2+]CCO2)cc1 ?
22

---

Exercise: state measured pIC50 for each of the compounds provided.
measurement.target: Transient receptor potential cation channel subfamily V member 6 (Homo sapiens, UniProt Q9H1D0)
assay.text: Inhibition of human TRPV6 transfected in HEK293 cells assessed as inhibition of Cd2+ influx after 5 mins by FLIPR assay
Type: cell-based
// field semantics: pIC50 = negative decimal log of concentration (mol/L)

Which measured pIC50 value corresponds to Cc1ccc([B-]2(c3ccc(C)cc3)[NH2+]CCO2)cc1 ?
4.77

Which measured pIC50 value corresponds to c1ccc([B-]2(c3ccccc3)OCC[N+]23CCNCC3)cc1 ?
4.61

Which measured pIC50 value corresponds to OB(c1ccc(C(F)(F)F)cc1)c1ccc(C(F)(F)F)cc1 ?
4.95

Which measured pIC50 value corresponds to Cc1ccc(B(O)c2ccc(C)cc2)cc1 ?
4.54

Which measured pIC50 value corresponds to c1ccc([B-]2(c3ccccc3)[NH2+]CCCO2)cc1 ?
4.55

Which measured pIC50 value corresponds to c1ccc([B-]2(c3ccccc3)OCc3cccc[n+]32)cc1 ?
4.38

Which measured pIC50 value corresponds to Fc1ccc([B-]2(c3ccc(F)cc3)[NH2+]CCO2)cc1 ?
4.85

Which measured pIC50 value corresponds to c1ccc(B(OB(c2ccccc2)c2ccccc2)c2ccccc2)cc1 ?
4.75

Which measured pIC50 value corresponds to C[N+]1(C)CCO[B-]1(c1ccccc1)c1ccccc1 ?
4.70

Which measured pIC50 value corresponds to OB(c1ccccc1)c1ccccc1 [DIPHENYL BORINIC ACID] ?
4.50

---

measurement.target: Transient receptor potential cation channel subfamily V member 6 (Homo sapiens, UniProt Q9H1D0)
Sequence (Q9H1D0 whole entry): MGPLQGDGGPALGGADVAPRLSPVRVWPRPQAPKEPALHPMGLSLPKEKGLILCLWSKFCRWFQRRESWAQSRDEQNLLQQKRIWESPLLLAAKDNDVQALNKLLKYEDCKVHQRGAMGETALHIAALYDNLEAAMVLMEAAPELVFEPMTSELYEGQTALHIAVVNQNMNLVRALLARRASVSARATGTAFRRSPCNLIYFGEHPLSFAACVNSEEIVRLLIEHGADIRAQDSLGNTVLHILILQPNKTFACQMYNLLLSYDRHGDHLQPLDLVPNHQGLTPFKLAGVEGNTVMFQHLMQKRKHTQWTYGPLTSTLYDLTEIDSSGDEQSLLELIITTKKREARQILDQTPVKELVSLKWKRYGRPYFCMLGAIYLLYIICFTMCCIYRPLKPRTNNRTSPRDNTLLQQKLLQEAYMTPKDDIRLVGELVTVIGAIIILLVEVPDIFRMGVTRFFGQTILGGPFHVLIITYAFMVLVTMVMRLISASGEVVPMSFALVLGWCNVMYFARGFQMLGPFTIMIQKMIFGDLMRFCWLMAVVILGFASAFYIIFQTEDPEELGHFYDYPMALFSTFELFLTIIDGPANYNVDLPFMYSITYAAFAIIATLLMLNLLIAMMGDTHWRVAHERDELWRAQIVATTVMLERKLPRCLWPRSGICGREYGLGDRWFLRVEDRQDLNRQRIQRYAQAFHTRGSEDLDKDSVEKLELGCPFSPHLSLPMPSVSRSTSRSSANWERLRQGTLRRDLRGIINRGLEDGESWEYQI
assay.text: Inhibition of human TRPV6 transfected in HEK293 cells assessed as inhibition of Cd2+ influx after 5 mins by FLIPR assay
Assay type: cell-based
quantity.name: pIC50
// field semantics: pIC50 = negative decimal log of concentration (mol/L)

Which measured pIC50 value corresponds to c1ccc([B-]2(c3ccccc3)[NH2+]CCO2)cc1 ?
4.61

Which measured pIC50 value corresponds to c1ccc([B-]2(c3ccccc3)[NH2+]CCS2)cc1 ?
4.03

Which measured pIC50 value corresponds to COc1ccccc1[B-]1(c2ccccc2OC)[NH2+]CCO1 ?
3.38

Which measured pIC50 value corresponds to COc1ccc([B-]2(c3ccc(OC)cc3)[NH2+]CCO2)cc1 ?
4.05

Which measured pIC50 value corresponds to c1ccc([B-]2(c3ccccc3)OC[C@@H]3CCC[NH+]32)cc1 (stereo partly specified) ?
4.55

Which measured pIC50 value corresponds to Ic1ccc([B-]2(c3ccccc3)[NH2+]CCO2)cc1 (stereo unspecified) ?
5.28

Which measured pIC50 value corresponds to Cc1ccccc1[B-]1(c2ccccc2)[NH2+]CCO1 (stereo unspecified) ?
4.17

Which measured pIC50 value corresponds to FC(F)(F)c1ccc([B-]2(c3ccc(C(F)(F)F)cc3)[NH2+]CCO2)cc1 ?
4.86

Which measured pIC50 value corresponds to OB(c1ccccc1)c1ccc(Cl)cc1 ?
4.92

Which measured pIC50 value corresponds to O=C1C[NH2+][B-](c2ccccc2)(c2ccccc2)O1 ?
4.51

Which measured pIC50 value corresponds to c1ccc([B-]2(c3ccccc3)OC[C@H]3CCC[NH+]32)cc1 (stereo partly specified) ?
4.51

Which measured pIC50 value corresponds to OB(c1ccccc1)c1ccc(C(F)(F)F)cc1 ?
4.90

Which measured pIC50 value corresponds to Fc1ccc([B-]2(c3ccccc3)[NH2+]CCO2)cc1 (stereo unspecified) ?
4.47

Which measured pIC50 value corresponds to Cc1ccc([B-]2(c3ccccc3)[NH2+]CCO2)cc1 (stereo unspecified) ?
4.89

Which measured pIC50 value corresponds to O=C1O[B-](c2ccccc2)(c2ccccc2)[NH2+][C@H]1CO ?
4.69

Which measured pIC50 value corresponds to Cc1ccc([B-]2(c3ccccc3)[NH2+]CCO2)s1 (stereo unspecified) ?
5.00

Which measured pIC50 value corresponds to CCCCc1ccc([B-]2(c3ccccc3)[NH2+]CCO2)cc1 (stereo unspecified) ?
4.92

Which measured pIC50 value corresponds to c1ccc(-c2ccc([B-]3(c4ccccc4)[NH2+]CCO3)cc2)cc1 (stereo unspecified) ?
4.29

Which measured pIC50 value corresponds to OB(c1ccc(F)cc1)c1ccc(F)cc1 ?
4.21

Which measured pIC50 value corresponds to Brc1ccc([B-]2(c3ccccc3)[NH2+]CCO2)cc1 (stereo unspecified) ?
5.01
